biological target: UniProtKB Q9R117; experiment: Inhibition of TYK2 JH2 domain in mouse whole blood assessed as inhibition of IFNalpha-induced STAT1 phosphorylation preincubated for 1 hr followed by IFNalpha stimulation and measured after 15 mins by fluorescence assay
Sequence (Q9R117 whole entry, the tested form may be a part): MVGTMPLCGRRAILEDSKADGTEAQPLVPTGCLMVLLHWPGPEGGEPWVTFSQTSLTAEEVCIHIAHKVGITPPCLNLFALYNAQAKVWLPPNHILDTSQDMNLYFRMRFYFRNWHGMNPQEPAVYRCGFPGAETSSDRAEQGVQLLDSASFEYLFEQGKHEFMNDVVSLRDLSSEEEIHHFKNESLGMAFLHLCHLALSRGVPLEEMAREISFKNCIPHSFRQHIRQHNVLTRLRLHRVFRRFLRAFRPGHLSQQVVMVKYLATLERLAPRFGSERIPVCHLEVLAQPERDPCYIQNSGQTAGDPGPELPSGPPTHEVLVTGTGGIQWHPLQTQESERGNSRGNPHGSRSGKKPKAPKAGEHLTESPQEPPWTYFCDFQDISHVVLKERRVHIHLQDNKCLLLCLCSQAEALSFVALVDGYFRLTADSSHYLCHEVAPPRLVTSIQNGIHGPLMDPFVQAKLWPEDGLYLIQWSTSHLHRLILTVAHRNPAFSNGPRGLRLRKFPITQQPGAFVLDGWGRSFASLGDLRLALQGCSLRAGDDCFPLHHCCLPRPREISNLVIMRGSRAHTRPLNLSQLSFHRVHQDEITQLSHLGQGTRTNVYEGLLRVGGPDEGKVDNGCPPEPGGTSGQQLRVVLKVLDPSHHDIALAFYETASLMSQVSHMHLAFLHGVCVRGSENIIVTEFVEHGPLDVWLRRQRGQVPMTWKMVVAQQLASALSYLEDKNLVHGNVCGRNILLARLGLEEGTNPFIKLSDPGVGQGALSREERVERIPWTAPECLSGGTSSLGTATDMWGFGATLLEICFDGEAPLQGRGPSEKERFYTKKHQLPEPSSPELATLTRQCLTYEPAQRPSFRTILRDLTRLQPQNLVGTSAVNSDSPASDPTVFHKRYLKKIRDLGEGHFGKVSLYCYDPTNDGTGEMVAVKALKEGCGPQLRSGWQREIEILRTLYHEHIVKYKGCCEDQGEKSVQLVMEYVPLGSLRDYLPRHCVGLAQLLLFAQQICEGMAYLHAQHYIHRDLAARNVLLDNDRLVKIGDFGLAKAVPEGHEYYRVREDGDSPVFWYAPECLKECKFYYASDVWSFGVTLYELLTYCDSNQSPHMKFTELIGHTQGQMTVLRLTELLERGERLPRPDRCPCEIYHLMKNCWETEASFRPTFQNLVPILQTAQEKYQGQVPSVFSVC
# reported IC50; entries follow
Hi! Could you send only the number? It should be in nM, unit omitted.

Smiles repr | Target entity | Quantity kind | Quantitative readout
[2H]C([2H])([2H])NC(=O)c1cnc(Nc2ccc(F)cn2)cc1Nc1ccccc1S(C)(=O)=O | UniProtKB Q9R117 | IC50 | 600
[2H]C([2H])([2H])NC(=O)c1nnc(NC(=O)C2CC2)cc1Nc1ccccc1S(C)(=O)=O | UniProtKB Q9R117 | IC50 | 340
CNC(=O)c1cnc(Nc2ccccn2)cc1Nc1ccccc1S(C)(=O)=O | UniProtKB Q9R117 | IC50 | 340
CNC(=O)c1cnc(NC(=O)C2CC2)cc1Nc1ccccc1S(C)(=O)=O | UniProtKB Q9R117 | IC50 | 830
[2H]C([2H])([2H])NC(=O)c1nnc(Nc2ccccn2)cc1Nc1ccccc1S(C)(=O)=O | UniProtKB Q9R117 | IC50 | 120

Problem: Lab note: UniProtKB Q9R117 assay, enter IC50 for "CNC(=O)c1cnc(Nc2ccc(F)cn2)cc1Nc1ccccc1S(C)(=O)=O" here
Solution: 450

Problem: Report measured IC50 on UniProtKB Q9R117; entry: "[2H]C([2H])([2H])NC(=O)c1nnc(Nc2ccc(F)cn2)cc1Nc1ccccc1S(C)(=O)=O"
Solution: 380

Problem: Fill in IC50 for "CS(=O)(=O)c1ccccc1Nc1cc(Nc2ccc(F)cn2)ncc1C(N)=O" tested with UniProtKB Q9R117.
Solution: 83

###

experiment: Metabolic stability in human liver microsomes assessed as parent compound remaining after 10 mins; assay type: ADME, Microsome; settings: read-out: Stability
// reported remaining at 10 min for each item listed
# value in %; strip the unit string

Some solved cases for reference:
Smiles repr | Quantity kind | Quantitative readout
CNC(=O)c1cnc(Nc2ccc(F)cn2)cc1Nc1ccccc1 | remaining at 10 min | 51
CNC(=O)c1cnc(Nc2ccc(F)cn2)cc1Nc1ccccc1OC | remaining at 10 min | 52
[2H]C([2H])([2H])NC(=O)c1cnc(Nc2ccc(F)cn2)cc1Nc1ccccc1S(C)(=O)=O | remaining at 10 min | 85

Problem: Return remaining at 10 min (reported value) for this compound: "CS(=O)(=O)c1ccccc1Nc1cc(Nc2ccc(F)cn2)ncc1C(N)=O"
Solution: 77

Problem: Consider the compound "CNC(=O)c1cnc(Nc2ccc(F)cn2)cc1Nc1ccccc1SC" and give its recorded remaining at 10 min.
Solution: 36

###

As shown below, each of these molecules has a reported Cmax value.
experiment: Cmax in Balb/c mouse assessed as 6-((5-Fluoropyridin-2-yl)amino)-4-((2-(methylsulfonyl)phenyl)amino)nicotinamide level at 3 mg/kg, iv after 5 hrs; assay type: ADME, organism-based; design: dose 3 mg/kg, route intravenous; conditions: in vivo
Answer format: value, then unit.

Smiles repr | Cmax
[2H]C([2H])([2H])NC(=O)c1cnc(Nc2ccc(F)cn2)cc1Nc1ccccc1S(C)(=O)=O | 4.9 nM

Problem: Supply recorded Cmax for "CNC(=O)c1cnc(Nc2ccc(F)cn2)cc1Nc1ccccc1S(C)(=O)=O" here.
Solution: 41 nM

###

Reported half-life is given for each of the following compounds.
experiment: Half life in mouse liver microsomes; assay type: ADME, Microsome
Only the number, expressed in min, is required.

Smiles repr | Quantity kind | Quantitative readout
[2H]C([2H])([2H])NC(=O)c1nnc(Nc2ccccn2)cc1Nc1ccccc1S(C)(=O)=O | half-life | 46
[2H]C([2H])([2H])NC(=O)c1cnc(Nc2ccc(F)cn2)cc1Nc1ccccc1S(C)(=O)=O | half-life | 35
[2H]C([2H])([2H])NC(=O)c1nnc(NC(=O)C2CC2)cc1Nc1ccccc1S(C)(=O)=O | half-life | 48
CNC(=O)c1cnc(NC(=O)C2CC2)cc1Nc1ccccc1S(C)(=O)=O | half-life | 10
[2H]C([2H])([2H])NC(=O)c1nnc(Nc2ccc(F)cn2)cc1Nc1ccccc1S(C)(=O)=O | half-life | 50

Okay, now this compound:
Problem: Report half-life, nothing else, for this compound: "CNC(=O)c1cnc(Nc2ccccn2)cc1Nc1ccccc1S(C)(=O)=O"
Solution: 14

###

assay: Efflux ratio of permeability in human Caco2; type: ADME, cell-based; details: Caco-2
Reported efflux ratio values for a set of compounds
Form field (numeric): enter value without unit.

Smiles repr | efflux ratio
CNC(=O)c1cnc(Nc2ccc(F)cn2)cc1Nc1ccccc1 | 0.5
[2H]C([2H])([2H])NC(=O)c1cnc(Nc2ccc(F)cn2)cc1Nc1ccccc1S(C)(=O)=O | 9.3

Problem: Specify reported efflux ratio for the compound shown: "CNC(=O)c1cnc(Nc2ccc(F)cn2)cc1Nc1ccccc1S(C)(=O)=O"
Solution: 10

Problem: Indicate the recorded efflux ratio value for this compound: "[2H]C([2H])([2H])NC(=O)c1nnc(NC(=O)C2CC2)cc1Nc1ccccc1S(C)(=O)=O"
Solution: 7.7

Problem: Report measured efflux ratio; entry is "CCS(=O)(=O)c1ccccc1Nc1cc(Nc2ccc(F)cn2)ncc1C(=O)NC"
Solution: 6

###

test: Half life in Balb/c mouse at 3 mg/kg, iv; format: ADME, organism-based; conditions: in vivo
Reported values of half-life for individual entries
Value expressed in h; do not type the unit.

Smiles repr | Quantity kind | Quantitative readout
[2H]C([2H])([2H])NC(=O)c1cnc(Nc2ccc(F)cn2)cc1Nc1ccccc1S(C)(=O)=O | half-life | 1.2

Problem: State its half-life for this compound: "CNC(=O)c1cnc(Nc2ccc(F)cn2)cc1Nc1ccccc1S(C)(=O)=O"
Solution: 3

###

assay: Terminal drug concentration in CD40-induced B6 CB17 mouse serum at 250 mg/kg, po BID administered as nanosuspension measured 24 hrs post-last dose; assay type: ADME, organism-based; conditions: read-out: Drug uptake
Quantity kind: concentration at 24 h (nM)
The answer is to be given in nM; state only the numeric part.

Problem: Give me measured concentration at 24 h, please, for this molecule: "[2H]C([2H])([2H])NC(=O)c1nnc(Nc2ccccn2)cc1Nc1ccccc1S(C)(=O)=O"
Solution: 77

###

biological target: UniProt O60674; assay: Inhibition of JAK2 JH1 domain (unknown origin)
Sequence (O60674 whole entry, the tested form may be a part): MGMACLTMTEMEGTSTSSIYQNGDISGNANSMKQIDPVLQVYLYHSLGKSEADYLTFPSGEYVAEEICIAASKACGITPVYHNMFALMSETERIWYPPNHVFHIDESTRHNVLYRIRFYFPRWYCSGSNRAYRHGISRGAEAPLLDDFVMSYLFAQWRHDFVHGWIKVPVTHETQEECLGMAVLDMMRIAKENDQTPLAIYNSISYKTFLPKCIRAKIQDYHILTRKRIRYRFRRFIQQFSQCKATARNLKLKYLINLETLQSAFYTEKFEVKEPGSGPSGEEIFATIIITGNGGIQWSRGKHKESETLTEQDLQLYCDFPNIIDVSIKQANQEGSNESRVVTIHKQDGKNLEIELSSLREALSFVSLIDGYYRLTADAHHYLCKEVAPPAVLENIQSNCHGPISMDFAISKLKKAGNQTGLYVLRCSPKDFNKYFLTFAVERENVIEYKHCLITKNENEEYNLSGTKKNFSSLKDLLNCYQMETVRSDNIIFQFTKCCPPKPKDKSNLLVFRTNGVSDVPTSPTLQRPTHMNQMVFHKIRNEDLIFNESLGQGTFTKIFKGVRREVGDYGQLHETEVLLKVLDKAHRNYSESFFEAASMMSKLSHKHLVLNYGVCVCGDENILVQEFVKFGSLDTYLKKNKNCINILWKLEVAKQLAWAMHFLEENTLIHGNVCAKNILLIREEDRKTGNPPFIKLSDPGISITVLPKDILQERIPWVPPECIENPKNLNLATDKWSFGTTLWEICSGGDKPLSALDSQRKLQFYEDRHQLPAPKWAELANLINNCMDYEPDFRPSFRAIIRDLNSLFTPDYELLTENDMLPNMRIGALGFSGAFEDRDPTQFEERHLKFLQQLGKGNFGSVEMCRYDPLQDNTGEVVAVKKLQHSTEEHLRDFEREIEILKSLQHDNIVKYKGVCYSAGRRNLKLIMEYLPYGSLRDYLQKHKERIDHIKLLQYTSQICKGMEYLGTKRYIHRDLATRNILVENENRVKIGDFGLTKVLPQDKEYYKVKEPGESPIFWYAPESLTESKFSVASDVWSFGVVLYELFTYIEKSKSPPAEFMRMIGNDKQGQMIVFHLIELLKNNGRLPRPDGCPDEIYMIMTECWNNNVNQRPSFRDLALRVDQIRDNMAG
pIC50: −log10 of the molar value.
Quantity kind: pIC50

Smiles repr | Target entity | Result
[2H]C([2H])([2H])NC(=O)c1nnc(NC(=O)C2CC2)cc1Nc1ccccc1S(C)(=O)=O | UniProt O60674 | < 4.30
CN(C)C(=O)c1cnc(Nc2ccc(F)cn2)cc1Nc1ccccc1C(N)=O | UniProt O60674 | < 5.70
NC(=O)c1ccccc1Nc1cc(Nc2ccc(F)cn2)ncc1C(=O)NC1CC1 | UniProt O60674 | < 5.70
CNC(=O)c1cnc(Nc2ccc(F)cn2)cc1Nc1ccccc1C(N)=O | UniProt O60674 | < 5.70
[2H]C([2H])([2H])NC(=O)c1nnc(Nc2ccccn2)cc1Nc1ccccc1S(C)(=O)=O | UniProt O60674 | < 4.30

Please find the next compound below.
Problem: Tell me measured pIC50 for "CCNC(=O)c1cnc(Nc2ccc(F)cn2)cc1Nc1ccccc1C(N)=O" please.
Solution: < 5.70

###

target: JAK1/TYK2 (Homo sapiens, UniProt P23458+P29597); test: Inhibition of TYK2/JAK1 in IFNalpha-stimulated human Kit225 cells by steady-glo luciferase assay
Sequence (P23458 whole entry): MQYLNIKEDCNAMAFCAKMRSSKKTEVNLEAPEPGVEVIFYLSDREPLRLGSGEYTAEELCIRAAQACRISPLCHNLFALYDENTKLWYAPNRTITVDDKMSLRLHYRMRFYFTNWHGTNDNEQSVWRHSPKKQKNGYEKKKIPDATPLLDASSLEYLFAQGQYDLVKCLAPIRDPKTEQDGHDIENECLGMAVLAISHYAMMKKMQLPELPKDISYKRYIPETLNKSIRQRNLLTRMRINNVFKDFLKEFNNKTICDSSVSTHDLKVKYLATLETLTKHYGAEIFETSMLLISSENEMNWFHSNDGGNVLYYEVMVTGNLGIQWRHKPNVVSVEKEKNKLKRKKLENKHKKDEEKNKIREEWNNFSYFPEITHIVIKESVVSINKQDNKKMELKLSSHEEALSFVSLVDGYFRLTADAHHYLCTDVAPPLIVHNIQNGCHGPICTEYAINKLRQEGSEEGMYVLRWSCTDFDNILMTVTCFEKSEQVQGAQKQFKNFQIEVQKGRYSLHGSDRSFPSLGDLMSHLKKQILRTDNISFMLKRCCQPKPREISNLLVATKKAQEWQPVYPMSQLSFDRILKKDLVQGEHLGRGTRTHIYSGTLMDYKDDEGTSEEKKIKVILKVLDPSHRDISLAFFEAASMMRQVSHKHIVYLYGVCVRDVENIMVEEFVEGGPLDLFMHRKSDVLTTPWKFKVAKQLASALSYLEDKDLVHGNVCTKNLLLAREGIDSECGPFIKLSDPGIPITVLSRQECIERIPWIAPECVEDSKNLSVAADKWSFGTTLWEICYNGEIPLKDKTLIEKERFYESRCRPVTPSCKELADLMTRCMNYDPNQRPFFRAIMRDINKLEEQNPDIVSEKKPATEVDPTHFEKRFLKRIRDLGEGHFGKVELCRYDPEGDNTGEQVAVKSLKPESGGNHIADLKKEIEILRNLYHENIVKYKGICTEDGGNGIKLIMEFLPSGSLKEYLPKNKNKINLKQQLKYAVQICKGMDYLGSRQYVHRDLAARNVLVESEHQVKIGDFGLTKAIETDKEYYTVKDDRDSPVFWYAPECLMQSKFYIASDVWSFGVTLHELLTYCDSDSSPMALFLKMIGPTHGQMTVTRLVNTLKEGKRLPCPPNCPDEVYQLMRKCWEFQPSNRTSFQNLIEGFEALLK
Sequence (P29597 whole entry): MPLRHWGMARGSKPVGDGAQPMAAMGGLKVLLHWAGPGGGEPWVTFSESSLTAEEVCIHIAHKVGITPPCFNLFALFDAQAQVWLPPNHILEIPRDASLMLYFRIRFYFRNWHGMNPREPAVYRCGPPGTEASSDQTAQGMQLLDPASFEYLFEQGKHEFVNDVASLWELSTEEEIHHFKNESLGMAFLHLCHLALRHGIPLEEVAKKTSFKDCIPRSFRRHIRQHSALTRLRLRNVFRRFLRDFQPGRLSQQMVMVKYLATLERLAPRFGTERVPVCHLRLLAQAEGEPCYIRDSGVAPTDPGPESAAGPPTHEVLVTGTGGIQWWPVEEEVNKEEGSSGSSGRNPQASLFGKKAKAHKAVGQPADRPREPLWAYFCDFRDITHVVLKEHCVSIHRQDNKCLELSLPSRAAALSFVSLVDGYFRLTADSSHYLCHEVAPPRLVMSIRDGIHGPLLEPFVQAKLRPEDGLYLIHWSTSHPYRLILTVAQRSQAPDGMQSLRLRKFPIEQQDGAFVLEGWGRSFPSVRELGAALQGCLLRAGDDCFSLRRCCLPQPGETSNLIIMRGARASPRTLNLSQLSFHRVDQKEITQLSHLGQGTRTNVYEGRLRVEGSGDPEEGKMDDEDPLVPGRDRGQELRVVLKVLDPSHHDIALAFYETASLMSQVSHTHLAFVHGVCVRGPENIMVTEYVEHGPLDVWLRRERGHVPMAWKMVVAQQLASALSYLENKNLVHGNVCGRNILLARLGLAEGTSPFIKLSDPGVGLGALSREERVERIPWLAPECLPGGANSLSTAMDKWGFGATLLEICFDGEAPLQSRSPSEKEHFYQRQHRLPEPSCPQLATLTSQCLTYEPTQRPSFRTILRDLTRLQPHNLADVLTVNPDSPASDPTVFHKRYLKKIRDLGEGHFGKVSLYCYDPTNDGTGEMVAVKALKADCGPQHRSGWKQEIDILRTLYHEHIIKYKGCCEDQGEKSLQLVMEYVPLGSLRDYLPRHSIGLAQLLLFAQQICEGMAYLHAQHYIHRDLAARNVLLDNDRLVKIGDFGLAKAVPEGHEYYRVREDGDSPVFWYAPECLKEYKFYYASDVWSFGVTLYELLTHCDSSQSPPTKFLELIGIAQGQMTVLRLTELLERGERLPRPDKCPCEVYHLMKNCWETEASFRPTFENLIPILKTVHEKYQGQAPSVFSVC
Quantity kind: pIC50
// returns pIC50 (minus log10 of molar concentration), number only

Smiles repr | Quantitative readout
CS(=O)(=O)c1ccccc1Nc1cc(Nc2ccc(F)cn2)ncc1C(N)=O | 7.46
CNC(=O)c1cnc(Nc2ccccn2)cc1Nc1ccccc1S(C)(=O)=O | 7.24
[2H]C([2H])([2H])NC(=O)c1nnc(NC(=O)C2CC2)cc1Nc1ccccc1S(C)(=O)=O | 8.89

Problem: For the molecule "CNC(=O)c1cnc(Nc2ccccn2)cc1Nc1ccccc1C(N)=O" , give its measured pIC50 value.
Solution: 6.51

Problem: Look up and state reported pIC50 for "CNC(=O)c1cnc(NC(=O)C(C)C)cc1Nc1ccccc1S(C)(=O)=O"
Solution: 5.36

###

A set of molecules tested on Mast/stem cell growth factor receptor Kit (Homo sapiens, UniProt P10721), with measured pIC50:
Kindly note that pIC50 refers to -log10 of the concentration in mol/L and answer with the value alone.

Smiles repr | pIC50
CNC(=O)c1cnc(Nc2ccccn2)cc1Nc1ccccc1S(C)(=O)=O | 6.20

Field: next molecule
Problem: Assign pIC50 to the following record: "CNC(=O)c1cnc(Nc2ccc(F)cn2)cc1Nc1ccccc1S(C)(=O)=O"
Solution: 7.00

###

target: Non-receptor tyrosine-protein kinase TYK2 (Homo sapiens, UniProt P29597); test: Inhibition of TYK2 JH1 domain (unknown origin)
pIC50: −log10 of the molar value.
Quantity kind: pIC50

Smiles repr | Target entity | pIC50
CNC(=O)c1cnc(Nc2ccc(F)cn2)cc1Nc1ccccc1C(N)=O | Non-receptor tyrosine-protein kinase TYK2 (Homo sapiens, UniProt P29597) | < 5.70
CNC(=O)c1cnc(Nc2ccc(F)cn2)cc1Nc1ccccc1S(C)(=O)=O | Non-receptor tyrosine-protein kinase TYK2 (Homo sapiens, UniProt P29597) | < 4.30
[2H]C([2H])([2H])NC(=O)c1nnc(Nc2ccccn2)cc1Nc1ccccc1S(C)(=O)=O | Non-receptor tyrosine-protein kinase TYK2 (Homo sapiens, UniProt P29597) | < 4.30

Problem: Dear colleague, please send me the reported pIC50 for "[2H]C([2H])([2H])NC(=O)c1nnc(NC(=O)C2CC2)cc1Nc1ccccc1S(C)(=O)=O" when you can.
Solution: 4.30

Problem: For the molecule "NC(=O)c1ccccc1Nc1cc(Nc2ccc(F)cn2)ncc1C(=O)NC1CC1" , give its measured pIC50 value.
Solution: < 5.70

Problem: Find the measured pIC50 of "CCNC(=O)c1cnc(Nc2ccc(F)cn2)cc1Nc1ccccc1C(N)=O" and report it.
Solution: < 5.70

Problem: Note pIC50 for the molecule shown: "NC(=O)c1ccccc1Nc1cc(Nc2ccc(F)cn2)ncc1C(N)=O"
Solution: 7.82
